# melting point per record follows

Record excerpt, results attached:
# Compound, melting point
measured = [
    ("Cc1c(S(=O)(=O)c2ccc(=O)[nH]n2)oc2ccccc12", "182 to 183 °C"),
    ("O=CN1c2ccccc2N(Cc2ccccc2)CC1CN1CCCC1 (configuration not stated)", "94 to 96 °C"),
    ("CCCCCCCc1ccc(C(=O)c2cccc(C(=O)O)c2)cc1", "124 to 126 °C"),
    ("O=C(c1c[nH]c2cc([N+](=O)[O-])ccc12)C(F)(F)F", "263 to 265 °C"),
    ("Cc1c(N)nc(=S)n(C)c1N", "178 °C"),
]

### Prompt Entry Oc1cc(-c2ccc(Cl)cc2)nc2ccnn12 has what melting point?
### Response 306 to 308 °C

### Prompt What do you get for Cc1ccc(S(=O)(=O)N(C)CC(=O)N2CCC[C@H]2C=O)cc1 ?
### Response 111 °C

### Prompt Queued: Cc1cc(-c2nc3cccnn3c2-c2ccnc(NC(=O)c3cccc4ccccc34)c2)ccc1F
### Response 252 to 253 °C

### Prompt For OC/C(=C(\CO)c1ccccc1)c1ccccc1 then?
### Response 79 °C

### Prompt Subsequent entry: Nc1cnc2c(NC(=O)c3c(Cl)cccc3Cl)cccc2c1-n1ccnc1
### Response > 250 °C

### Prompt Then what about the compound CC(O)Cc1cc([N+](=O)[O-])cc([N+](=O)[O-])c1N (configuration not stated) ?
### Response 168 °C

### Prompt And N#Cc1c(F)cccc1Nc1ccccc1 ?
### Response 97 to 99 °C

### Prompt // repeat for COc1ccc(C=Cc2cc(OC)c(OC)c(OC)c2)c(O)c1O and report
### Response 114 to 115 °C

### Prompt Follow-up item: CC(C)(C)[Si](C)(C)O[C@@H]1C[C@]2(O)C[C@@H](OC2=O)C1=O
### Response 92 to 95 °C

### Prompt Next: CN1[C@@H](c2ccc(O)cc2)c2ccccc2S1(=O)=O
### Response 178 to 180 °C

### Prompt Entry to check: CC1(C)OC(O)C(Oc2ccc(F)c(F)c2)=C1c1ccc(S(C)(=O)=O)cc1 (configuration not stated)
### Response 151 °C

* * *

Measured melting point by item

Worked cases, answers included:
# Molecule, melting point
records = [
    ("CCOC(=O)CCc1cccc2c1Sc1cc(C#N)ccc1CC2", "61 to 62 °C"),
    ("CN(C)c1ncc(-c2cccc(-n3cnc4cc(-c5ccco5)ccc43)c2)cn1", "170 to 172 °C"),
    ("Cc1cccc(CC(Nc2ccccc2)C(=O)NC(C#N)COCc2cccc(C(=O)O)c2)c1 (stereo unspecified)", "135 to 137 °C"),
]

### Prompt What does the record list as melting point for COC(=O)c1cc(C)cc(C#N)c1 ?
### Response 68 to 69 °C

### Prompt And for Nc1nc(NCc2ccccc2)c2ncn(C3C=CC(CO)C3)c2n1 (stereo unspecified) ?
### Response 174 to 176 °C

### Prompt O=C1CCC(N2CCN(Cc3ccccc3)CC2)CC1 , same question.
### Response 83 to 85 °C

* * *

Value Kind: melting point

Illustrative cases are given below, each with its answer.
# Compound, Value Kind, Result Value
records = [
    ("CC1(C)OC(=C(C#N)C#N)C(C#N)=C1c1ccc(C#C[Si](C)(C)C)cc1", "melting point", "201 °C"),
    ("O=C(NCC1CC1)c1ccc(-c2ccc3nnn(Cc4ccc5ncccc5c4)c3n2)cc1F", "melting point", "120 to 122 °C"),
    ("CN(C)C(=O)COc1ccc2c(-c3ccc(Br)cc3)nsc2c1", "melting point", "159 °C"),
]

### Prompt Tell me the measured melting point of C=CC1(F)CN(C2CCCC2)c2nc(Nc3ccc(C(=O)NN4CCN(C)CC4)cc3OC)ncc2N(C)C1=O (stereo not drawn) , please.
### Response 253 to 263 °C

### Prompt Next up: O=C(O)c1cccc(CC2COc3cc(OCc4ccc5ccccc5n4)ccc3C2O)c1 (stereo not drawn)
### Response 165 to 168 °C

### Prompt Similarly, Oc1cccc2c1CC[C@H]1[C@@H]2CCN1CCC1CCCCC1 ?
### Response 130 to 133 °C

### Prompt Check CC(C)(C)c1ccc(Cn2c3c(c4cc(OCc5ccccc5)ccc42)C(=O)C(=O)OC3)cc1 too.
### Response 233 to 234 °C

### Prompt Try CCCc1ccc2nc(S(=O)(=O)CC)c(S(N)(=O)=O)n2n1 next.
### Response 232 to 233 °C

### Prompt Input Cn1cc2c3c(c(F)cc2n1)CCC3=O
### Response 190 to 192 °C

### Prompt What about NS(=O)(=O)c1ccc(C2=NC3(O)c4ccc(Cl)cc4CC3S2)cc1 (stereo not drawn) ?
### Response 160 °C

### Prompt Also CN1CCN(Cc2ccc(NC(=O)c3nsc4cc(Oc5ccnc(N)n5)ccc34)cc2C(F)(F)F)CC1 , if possible.
### Response 215 to 217 °C

### Prompt // query: CN(C)CC(O)C(c1ccccc1)c1ccccc1 (stereo not drawn)
### Response 72 to 73 °C

### Prompt What do you get for CCC(CC)Nc1cc(C)nc(Oc2c(C)cccc2C)c1N ?
### Response 98 to 100 °C

* * *

Measured melting point, listed per entry for reference.
Your answer is read as °C, so omit the unit and give the number.

// solved cases for melting point follow
# Record Smiles, Value Kind, Scale Unit, Result Value
measured = [
    ("O=c1cc(N2CCOCC2)oc2ccccc12", "melting point", "°C", 143),
    ("CCNc1nc2ccccc2s1", "melting point", "°C", 93),
]

Kindly review the next molecule as well.
### Prompt What melting point value was documented for this molecule, CC(C)(C)OC(=O)Cn1c(C(=O)OCc2ccccc2)cc2cnccc21 ?
### Response 94

* * *

Below, each entry is listed alongside its reported melting point.

The examples below pair each entry with its known result.
# Compound, Result Value
records = [
    ("N#CC1=C(c2ccccc2)Nc2n[nH]cc2C1c1cccc(C#N)c1Br (stereo not given)", "> 270 °C"),
    ("Nc1ccc2ccc(-c3ccccc3Cl)nc2n1", "193 °C"),
    ("CC(=O)Oc1ccc(S(=O)(=O)ON=C2CCCc3ccccc32)cc1", "151 to 152 °C"),
    ("COc1cc(C(=O)c2ccc([N+](=O)[O-])cc2)c(CC(=O)O)cc1Br", "189 to 192 °C"),
]

In the following, a different compound is considered.
### Prompt What value of melting point has been recorded for this entry: N#CC(c1ccccc1)(c1ccccc1)[C@H]1CCCN(CCc2ccccc2)C1
### Response 134 to 138 °C

* * *

Value Kind: melting point

Examples with their reported melting point follow.
# Compound, Value Kind, Result Value
records = [
    ("COCc1cnc2c(NC(=O)c3c(Cl)cccc3Cl)cccc2c1COC", "melting point", "160 to 161 °C"),
    ("CCCC1(S(=O)(=O)CCCN2CCN(C)CC2)C(=O)N(S(=O)(=O)c2ccc3ccccc3c2)C2CCNC21 (centres undefined)", "melting point", "186 to 187 °C"),
    ("CC1=C(C(=O)O)C(c2cccc([N+](=O)[O-])c2)C(C(=O)OCCNC(=O)c2cccnc2)=C(C)N1 (centres undefined)", "melting point", "151 to 152 °C"),
    ("CCn1c2ccccc2c2ccncc21", "melting point", "195 to 196 °C"),
    ("Nc1nc(-c2ccccc2)c(-c2ccc(=O)n(Cc3ccccc3)n2)s1", "melting point", "225 to 228 °C"),
    ("CCCc1nc2c(N)nc3cc(OCc4cccc(N)c4)ccc3c2n1CC(C)C", "melting point", "228 to 230 °C"),
    ("CC(C)CC1(CC(=O)NO)CCN(CCc2ccccc2)C1=O (centres undefined)", "melting point", "123 to 124 °C"),
    ("CC(=O)c1ccc2[nH]c(C(=O)c3ccc(Cl)cc3)c(CC(=O)O)c2c1", "melting point", "225 °C"),
]

### Prompt So what does the record say about melting point for ClC(Cl)(Cl)c1nc2ccccc2o1 ?
### Response 102 °C

* * *

Value Kind: melting point

Some molecules with recorded melting point:
# Molecule, melting point
records = [
    ("CCNC(=O)Nc1nc2cc(-c3cccnc3)cc(-c3ccc(C)cn3)c2s1", "231 °C"),
    ("CCOC(=O)C(C)(C)Oc1ccc(OCc2ccccc2)cc1C=O", "65 °C"),
]

### Prompt # lookup: melting point of Cc1nnc(-c2ccc3c(c2)c2cc(-c4ccc(Cl)cc4Cl)c(=O)n(C)c2n3C)o1
### Response 311 to 316 °C

### Prompt Thanks! And COc1cc(N)ccc1-c1sc(C)nc1C ?
### Response 112 to 115 °C

### Prompt // repeat for CC(=O)Cc1ccc(OCc2ccccc2)cc1 and report
### Response 50 to 54 °C

### Prompt Okay, and CC(c1ccc(-c2ccccc2)c(F)c1)c1csc(NC(=O)C(N)=O)n1 (configuration not stated) ?
### Response 179 to 180 °C

### Prompt Moving on to CCCC(C(C)C)C(CN)CC(=O)O (configuration not stated)
### Response 160 to 170 °C
